# system name: H-2 D^b (Mus musculus, UniProt P01899)
# Sequence (P01887 21-119): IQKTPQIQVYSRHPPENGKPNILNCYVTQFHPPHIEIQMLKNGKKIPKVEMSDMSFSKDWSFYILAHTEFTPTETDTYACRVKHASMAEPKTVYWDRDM
# Sequence (P01899 25-362): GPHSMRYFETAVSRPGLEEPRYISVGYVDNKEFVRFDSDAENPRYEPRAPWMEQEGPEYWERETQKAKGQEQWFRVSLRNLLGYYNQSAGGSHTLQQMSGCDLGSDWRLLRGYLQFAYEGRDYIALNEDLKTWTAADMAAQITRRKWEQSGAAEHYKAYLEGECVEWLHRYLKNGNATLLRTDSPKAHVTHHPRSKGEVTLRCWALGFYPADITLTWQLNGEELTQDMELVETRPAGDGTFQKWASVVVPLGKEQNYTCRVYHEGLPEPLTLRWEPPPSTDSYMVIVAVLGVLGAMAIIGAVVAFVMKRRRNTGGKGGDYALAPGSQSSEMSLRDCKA
# Assay type: binding
// label = 1 if Normalized average relative binding affinity(ARB) is not less than 0.3, otherwise 0

[
  {
    "macromolecule sequence": "XXXXXLXXX [3064.0110]",
    "class label": 1
  },
  {
    "macromolecule sequence": "XXXXXPXXX [3064.0113]",
    "class label": 0
  },
  {
    "macromolecule sequence": "XXXXXVXXX [3064.0118]",
    "class label": 1
  }
]

Dear colleague, could you confirm whether XXXXPXXXX [3064.0093] has Normalized average relative binding affinity(ARB) at or above 0.3?
0

Dear colleague, could you confirm whether XXXXXXWXX [3064.0139] has Normalized average relative binding affinity(ARB) at or above 0.3?
1

Dear colleague, could you confirm whether XXXXXXXSX [3064.0156] has Normalized average relative binding affinity(ARB) at or above 0.3?
0
